Documented inhibition at 100 µM across a set of molecules
- System: H4
- assay_overview: Compound is evaluated for the inhibition of [125I]T3 uptake by H4 rat hepatoma cells at 0.1 mM
- Assay type: functional
Give just the numeric value; % need not be written.

substance_smiles	inhibition at 100 µM (%)
O=C(O)c1ccccc1Nc1cccc(Br)c1	48.1
Cc1ccc(Cl)c(Nc2ccccc2C(=O)O)c1Cl	74.2
Cc1cccc(C)c1Nc1ccccc1C(=O)O	48
O=C(O)c1ccccc1Nc1c(Cl)cccc1Cl	54.6
O=C(O)c1ccccc1Nc1ccc(Cl)c(Cl)c1	55.6

Data request: GET /values?readout=inhibition at 100 µM&item= Cc1cccc(Nc2ccccc2C(=O)O)c1
Data returned: 30

Data request: Item O=C(O)c1ccccc1Nc1cc(C(F)(F)F)cc(C(F)(F)F)c1 has what recorded inhibition at 100 µM?
Data returned: 39.5

Data request: Form field: reported inhibition at 100 µM of O=C(O)c1ccccc1Nc1cccc(I)c1
Data returned: 40

Data request: Item under review: O=C(O)c1ccccc1Nc1ccc(Cl)c(C(F)(F)F)c1 . Reported inhibition at 100 µM?
Data returned: 51

Data request: Could you share which inhibition at 100 µM value was measured for O=C(O)c1ccccc1Nc1cc(Cl)cc(Cl)c1 ?
Data returned: 60.6

Data request: Item under review: N#Cc1cccc(Nc2ccccc2C(=O)O)c1 . Reported inhibition at 100 µM?
Data returned: 11.6

Data request: What measured inhibition at 100 µM goes with O=C(O)c1ccccc1Nc1cccc(OC(F)(F)C(F)F)c1 ?
Data returned: 57

Data request: What value of measured inhibition at 100 µM is listed for O=C(O)c1ccccc1Nc1ccccc1Cl ?
Data returned: 44.6

Data request: What value of inhibition at 100 µM has been reported for the following molecule? O=C(O)c1ccccc1Nc1cc(Br)cc(Br)c1
Data returned: 39.1

Data request: Quick check: inhibition at 100 µM of COc1ccc(Nc2ccccc2C(=O)O)cc1C(F)(F)F ?
Data returned: 54

Data request: Reported inhibition at 100 µM for O=C(O)c1ccccc1Nc1cc(Cl)ccc1Cl : what is it?
Data returned: 43.2

Data request: Any idea what its inhibition at 100 µM is? The molecule is O=C(O)c1ccccc1Nc1cccc(Cl)c1Cl
Data returned: 56.6

Data request: What does the data say about its inhibition at 100 µM? Entry: O=C(O)c1ccccc1Nc1cccc(C(F)(F)F)c1
Data returned: 64.4
